Target: T1, Monomeric human CD48-mmH (human)
T1 chain: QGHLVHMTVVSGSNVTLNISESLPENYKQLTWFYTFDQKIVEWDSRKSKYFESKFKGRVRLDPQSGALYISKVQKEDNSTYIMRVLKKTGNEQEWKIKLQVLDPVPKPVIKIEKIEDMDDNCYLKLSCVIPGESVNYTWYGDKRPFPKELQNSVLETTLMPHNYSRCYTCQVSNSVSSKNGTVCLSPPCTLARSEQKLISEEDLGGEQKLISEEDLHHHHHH
Assay: SPR (Biacore), antibody captured by anti-Fc, CD48 in solution, 37 C
Listed here: items and their measured log10 koff.
Give log10 of koff, with koff taken in s⁻¹.

These recorded examples may help you get a feel for the data.
binder="H4H1713N (antibody, V domains shown, Human IgG4 Fc (H4H)) VH: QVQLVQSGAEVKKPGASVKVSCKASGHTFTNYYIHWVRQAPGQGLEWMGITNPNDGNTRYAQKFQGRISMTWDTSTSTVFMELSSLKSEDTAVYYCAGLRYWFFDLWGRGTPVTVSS VL: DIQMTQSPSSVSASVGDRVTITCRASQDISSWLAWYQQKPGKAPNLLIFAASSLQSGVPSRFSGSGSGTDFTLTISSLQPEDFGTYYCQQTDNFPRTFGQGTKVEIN" measurement=-3.20
binder="H4H1781P (antibody, human IgG4, V domains shown, Human IgG4 Fc (H4H)) VH: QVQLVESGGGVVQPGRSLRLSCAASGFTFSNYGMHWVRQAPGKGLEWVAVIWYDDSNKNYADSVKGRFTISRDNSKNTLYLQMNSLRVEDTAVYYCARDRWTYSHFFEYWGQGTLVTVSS VL: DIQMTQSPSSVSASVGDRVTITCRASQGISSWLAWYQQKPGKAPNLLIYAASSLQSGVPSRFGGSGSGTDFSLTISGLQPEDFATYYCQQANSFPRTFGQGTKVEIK" measurement=-4.00

Q: Data request, read-out log10 koff, for H2M1713N (antibody, mouse IgG2, V domains shown, Human variable domains, mouse IgG2 Fc (H2M)) VH: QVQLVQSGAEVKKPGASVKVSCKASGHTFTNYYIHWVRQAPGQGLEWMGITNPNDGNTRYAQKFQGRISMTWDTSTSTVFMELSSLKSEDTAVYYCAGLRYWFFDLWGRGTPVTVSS VL: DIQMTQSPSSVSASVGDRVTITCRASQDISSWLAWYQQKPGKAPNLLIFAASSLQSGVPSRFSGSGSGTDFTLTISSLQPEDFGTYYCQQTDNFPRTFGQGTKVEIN
Ans: -3.19

Q: Data request, read-out log10 koff, for H4H1774P (antibody, human IgG4, V domains shown, Human IgG4 Fc (H4H)) VH: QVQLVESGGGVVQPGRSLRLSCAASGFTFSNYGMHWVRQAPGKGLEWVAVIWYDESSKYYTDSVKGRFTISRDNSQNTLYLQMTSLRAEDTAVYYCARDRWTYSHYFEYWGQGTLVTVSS VL: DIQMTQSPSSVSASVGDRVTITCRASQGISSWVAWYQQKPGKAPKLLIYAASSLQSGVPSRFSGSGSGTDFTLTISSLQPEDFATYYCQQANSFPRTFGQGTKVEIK
Ans: -3.97

Q: Data request, read-out log10 koff, for H4H1707N (antibody, V domains shown, Human IgG4 Fc (H4H)) VH: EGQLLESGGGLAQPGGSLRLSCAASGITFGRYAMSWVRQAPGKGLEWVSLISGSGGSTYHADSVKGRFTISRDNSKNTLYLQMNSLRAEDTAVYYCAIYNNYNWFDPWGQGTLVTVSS VL: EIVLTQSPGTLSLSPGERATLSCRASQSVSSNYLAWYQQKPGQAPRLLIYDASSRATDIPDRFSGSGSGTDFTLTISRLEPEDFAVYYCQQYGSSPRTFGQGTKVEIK
Ans: -2.56
